Test system: E. coli ATCC 25922
Format: cell-based, Escherichia coli
Conditions: ATCC 25922, 24 h
Text: Bacteria used in this study were Escherichia coli ATCC 25922 and O18K1H7, Staphylococcus aureus ATCC 25923 and ATCC 29213, Pseudomonas aeruginosa ATCC 27853, Staphylococcus epidermidis ATCC 12228, Enterococcus faecalis ATCC 29212, Bacillus subtilis DSM 4181, Listeria monocytogenes DSM 20600, Salmonella typhimurium ATCC 14028, Acinetobacter baumannii ATCC 19606 and 17978, Klebsiella pneumoniae ATCC 13883 and 700603, Stenotrophomonas maltophilia ATCC 13637 and Burkholderia cenocepacia J2315. […]
Where a SMILES comes first, the peptide text is derived from it. The star is where a group is joined. Lauroyl = CCCCCCCCCCCC(=O)*
endpoint: MIC (µg/mL)
Write down the numeric answer in µg/mL and omit the unit.

Form field: MIC recorded for CCCCCCCCCCCC(=O)N[C@@H](CCCNC(=N)N)C(=O)N[C@@H](CS)C(=O)N[C@@H](Cc1c[nH]c2ccccc12)C(=O)N[C@@H](CCCNC(=N)N)C(N)=O [Lp-C, Lau-RCWR-NH2] (Lauroyl-RCWR-NH2) with E. coli ATCC 25922 (enter value)
200

Quick one: CCCCCCCCCCCC(=O)N[C@@H](CCCNC(=N)N)C(=O)NCC(=O)N[C@@H](Cc1c[nH]c2ccccc12)C(=O)N[C@@H](CCCNC(=N)N)C(N)=O [Lp-G, Lau-RGWR-NH2] (Lauroyl-RGWR-NH2)
25

Quick one: CCCCCCCCCCCC(=O)N[C@@H](CCCNC(=N)N)C(=O)N[C@@H](CO)C(=O)N[C@@H](Cc1c[nH]c2ccccc12)C(=O)N[C@@H](CCCNC(=N)N)C(N)=O [Lp-S, Lau-RSWR-NH2] (Lauroyl-RSWR-NH2)
25
